# Tested on: SJSA-1
# Assay protocol: cells
# Measurement setup: Homo sapiens
Reported pIC50 values are given for each entry in this list.
Here pIC50 is given on a logarithmic scale as minus log10 of the concentration in mol/L.

Look over these answered cases.
O=C(NCC[C@H](O)CO)[C@@H]1NC2(CCCCC2)[C@@]2(C(=O)Nc3cc(Cl)ccc32)[C@H]1c1cccc(Cl)c1F
6.70
O=C(NCCN1CCOCC1)[C@@H]1NC2(CCCCC2)[C@@]2(C(=O)Nc3cc(Cl)ccc32)[C@H]1c1cccc(Cl)c1F
6.52
O=C(N[C@H]1CC[C@H](O)CC1)[C@@H]1NC2(CCCCCC2)[C@@]2(C(=O)Nc3cc(Cl)ccc32)[C@H]1c1cccc(Cl)c1F
5.68
O=C(O)c1ccc(NC(=O)[C@@H]2NC3(CCCCC3)[C@@]3(C(=O)Nc4cc(Cl)ccc43)[C@H]2c2cccc(Cl)c2F)cc1
7.00

Task item: Request - read-out pIC50 | tested on SJSA-1 | compound C[C@]1(O)C[C@@H](NC(=O)[C@@H]2NC3(CCCCC3)[C@@]3(C(=O)Nc4cc(Cl)ccc43)[C@H]2c2cccc(Cl)c2F)C1
Reply: 6.80

Task item: Notebook: pull reported pIC50 for SJSA-1, entry O=C(NCC[C@H](O)CO)[C@@H]1NC2(CCC2)[C@@]2(C(=O)Nc3cc(Cl)ccc32)[C@H]1c1cccc(Cl)c1F
Reply: 5.68

Task item: Recall the recorded pIC50 for CCCC1(CCC)N[C@@H](C(=O)N[C@H]2CC[C@H](O)CC2)[C@H](c2cccc(Cl)c2F)[C@]12C(=O)Nc1cc(Cl)ccc12 with SJSA-1 and state it.
Reply: 5.16

----------
# Assay protocol: physchem
# Measurement setup: 1:1 CH3CN/H2O solution
Measured endpoint: degraded at 168 h (%)
Value expressed in %; do not type the unit.

Task item: What degraded at 168 h value was documented for this molecule, CC(C)(C)C[C@@H]1N[C@@H](C(=O)N[C@H]2C[C@@](C)(O)C2)[C@H](c2cccc(Cl)c2F)[C@]12C(=O)Nc1cc(Cl)ccc12 ?
Reply: 2

----------
remaining at 0 h by entry:
# Assay protocol: physchem
# Measurement setup: 1:1 CH3CN/H2O
Provide the reading as a plain figure in %.

Here's what some known entries look like.
O=C(NCC[C@H](O)CO)[C@@H]1NC2(CCCCC2)[C@@]2(C(=O)Nc3cc(Cl)ccc32)[C@H]1c1cccc(Cl)c1F
100
CC(C)(C)C[C@@H]1N[C@@H](C(=O)NCC[C@H](O)CO)[C@H](c2cccc(Cl)c2F)[C@]12C(=O)Nc1cc(Cl)ccc12
97.5
CC(C)(C)C[C@@H]1N[C@@H](C(=O)NCCN2CCOCC2)[C@H](c2cccc(Cl)c2F)[C@]12C(=O)Nc1cc(Cl)ccc12
98.1
O=C(NCCN1CCOCC1)[C@@H]1NC2(CCCCC2)[C@@]2(C(=O)Nc3cc(Cl)ccc32)[C@H]1c1cccc(Cl)c1F
100
CC(C)(C)C[C@@H]1N[C@@H](C(=O)N[C@H]2C[C@@](C)(O)C2)[C@H](c2cccc(Cl)c2F)[C@]12C(=O)Nc1cc(Cl)ccc12
100

Task item: What remaining at 0 h value was documented for this compound, C[C@]1(O)C[C@@H](NC(=O)[C@@H]2NC3(CCCCC3)[C@@]3(C(=O)Nc4cc(Cl)ccc43)[C@H]2c2cccc(Cl)c2F)C1 ?
Reply: 100
